Reference source for all entries: ChEMBL document CHEMBL1201862

- System: COLO 205
- test-protocol: NCI tumour cell line growth inhibition, 48 h
Calls of active or inactive are those of the source. No stated cut-off is given here; in the data, active = GI50 up to about 1.1 µM and inactive = higher.
measured-property: GI50

Example molecules with recorded GI50:
[
  {
    "molecule": "COC(=O)C1=Cc2c(cc(OC)c(OC)c2OC)[C@H](c2ccc(OC)c(OC)c2OC)C1C(=O)OC (stereo not given in full)",
    "value-observed": "55.7 µM (inactive)"
  },
  {
    "molecule": "Nn1c(CCCl)nc2c(Br)cc(Br)cc2c1=O",
    "value-observed": "23.9 µM (inactive)"
  },
  {
    "molecule": "COc1ccc(C2SCC(=O)N2c2ccc(-n3c(-c4ccccc4)nc4ccccc4c3=O)cc2)cc1OC (stereo not given)",
    "value-observed": "> 100 µM (inactive)"
  },
  {
    "molecule": "O=C(O)CSCc1cccc2ccccc12",
    "value-observed": "> 100 µM (inactive)"
  }
]

For the next question, use this molecule.
Reported GI50 for COLO 205, given C=C1C=CC2(Br)OC3CC(C)(Cl)C(Br)CC13C2(C)C (stereo not given) ? 16.1 µM (inactive)

###

- System: CAKI-1
- test-protocol: NCI tumour cell line growth inhibition, 48 h
Active and inactive are the calls of the source. Cut-off read from the data, not from the text of the source: active = GI50 up to about 1.1 µM and inactive = higher.
measured-property: GI50

Solved cases below.
[
  {
    "compound": "COC1CC(O[C@H]2CC[C@@]3(C)[C@@H](CC[C@]4(O)[C@@H]3CC[C@]3(C)[C@@H](C(C)=O)[C@H](OC(=O)CC(C)C)[C@@H](OC(=O)c5ccccc5)[C@@]34O)C2)OC(C)C1OC1CC(OC)C(OC2OC(C)C(O)C(OC)C2O)C(C)O1 (some centres undefined)",
    "target-of-assay": "CAKI-1",
    "GI50": "17.7 µM (inactive)"
  },
  {
    "compound": "CCC12CC(c3ccccc3)C(C(=O)N1)C(=O)N2 (centres undefined)",
    "target-of-assay": "CAKI-1",
    "GI50": "> 100 µM (inactive)"
  },
  {
    "compound": "COc1ccc2c(=O)c(-c3cc4c(cc3OC)OCO4)coc2c1",
    "target-of-assay": "CAKI-1",
    "GI50": "51.8 µM (inactive)"
  }
]

Alright, here's another compound for you.
Form field: reported GI50 of Cc1c(Cl)ccc2c1NC(=O)C2(O)CC(=O)c1ccc2ccccc2c1 (centres undefined) 42 µM (inactive)

###

- Test system: K562
- test-protocol: NCI tumour cell line growth inhibition, 48 h
Calls of active or inactive are those of the source. No stated cut-off is given here; in the data, active = GI50 up to about 1.1 µM and inactive = higher.
measured-property: GI50

[
  {
    "compound": "Fc1cccc(Cl)c1C1SCc2nc3ccccc3n21 (stereo not drawn)",
    "GI50": "25.8 µM (inactive)"
  }
]

Consider the compound `C/C(=N\NC(=O)C[N+](C)(C)C)c1sc(-c2cccnc2)nc1C` and give its measured GI50. > 100 µM (inactive)

Entry to check: COC1/C=C/C(C)C(C(C)C(OC)C(C)CCC(=O)C(C)C(CCC(=O)O)OC)OC(=O)/C=C/C=C(\C)CC(OC)CC2=CC(=O)O[C@@H](C(C)C(OC)CC(OC)/C=C/C(C)C(OC)C1)[C@H]2O (stereo partly drawn) 1.92 µM (inactive)

###

- Tested on: ACHN
- test-protocol: NCI tumour cell line growth inhibition, 48 h
Activity calls are given as the source filed them. No stated cut-off is given here; in the data, active = GI50 up to about 1.1 µM and inactive = higher.
Documented GI50 across a set of compounds

Any idea what its GI50 is? The compound is `Oc1ccc(Cl)cc1-c1nc(S)nc(-c2ccccc2)c1Cl` > 90.8 µM (inactive)

How about `COc1ccc(-c2cc(O)c3cccnc3n2)cc1` ? 53.7 µM (inactive)

Repeat for the following compound: `Cc1ccc(/C=C/C(=O)c2sc(C(N)=S)nc2C)cc1` > 100 µM (inactive)
